Value source: BindingDB's records for patent US20250313563

pIC50: −log10 of the molar value.
Target or system Glycogen synthase kinase-3 beta (Homo sapiens): recorded pIC50 listed per item.

Compound: CC[C@]1(c2cccc(-c3ccnc(C)c3)c2)C2=CN=NC2NC2=C1C(=O)NC(C)(C)C2 (stereo partly drawn) [US20250313563, Compound 927325]
Target Or Test System: Glycogen synthase kinase-3 beta (Homo sapiens)
Sequence (P49841 whole entry): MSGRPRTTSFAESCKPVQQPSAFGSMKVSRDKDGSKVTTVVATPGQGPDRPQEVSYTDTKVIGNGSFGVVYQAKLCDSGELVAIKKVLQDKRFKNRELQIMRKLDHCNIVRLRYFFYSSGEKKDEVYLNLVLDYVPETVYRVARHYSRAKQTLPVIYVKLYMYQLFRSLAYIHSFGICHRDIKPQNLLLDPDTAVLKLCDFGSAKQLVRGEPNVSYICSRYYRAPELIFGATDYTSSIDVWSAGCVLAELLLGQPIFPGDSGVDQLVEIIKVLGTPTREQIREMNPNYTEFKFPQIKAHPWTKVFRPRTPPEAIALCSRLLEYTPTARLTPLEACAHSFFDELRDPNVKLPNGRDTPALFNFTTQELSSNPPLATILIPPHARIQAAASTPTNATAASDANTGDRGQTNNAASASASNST
pIC50: 6.00 to 7.00
--
Compound: CC[C@@]1(c2cccc(Oc3ncccn3)c2)C2=C(CC(C)(C)NC2=O)NC2N=NC(Cl)=C21 (stereo partly drawn) [US20250313563, Compound 951605]
Target Or Test System: Glycogen synthase kinase-3 beta (Homo sapiens)
pIC50: < 5.30
--
Compound: Cc1cc(-c2cccc3c2CCC[C@@]32C3=CN=NC3NC3=C2C(=O)CC(C)(C)C3)ccn1 (stereo partly drawn) [US20250313563, Compound 945549]
Target Or Test System: Glycogen synthase kinase-3 beta (Homo sapiens)
pIC50: > 7.00

---

# Target Or Test System: Glycogen synthase kinase-3 alpha (Homo sapiens, UniProt P49840)
# Sequence (P49840 whole entry): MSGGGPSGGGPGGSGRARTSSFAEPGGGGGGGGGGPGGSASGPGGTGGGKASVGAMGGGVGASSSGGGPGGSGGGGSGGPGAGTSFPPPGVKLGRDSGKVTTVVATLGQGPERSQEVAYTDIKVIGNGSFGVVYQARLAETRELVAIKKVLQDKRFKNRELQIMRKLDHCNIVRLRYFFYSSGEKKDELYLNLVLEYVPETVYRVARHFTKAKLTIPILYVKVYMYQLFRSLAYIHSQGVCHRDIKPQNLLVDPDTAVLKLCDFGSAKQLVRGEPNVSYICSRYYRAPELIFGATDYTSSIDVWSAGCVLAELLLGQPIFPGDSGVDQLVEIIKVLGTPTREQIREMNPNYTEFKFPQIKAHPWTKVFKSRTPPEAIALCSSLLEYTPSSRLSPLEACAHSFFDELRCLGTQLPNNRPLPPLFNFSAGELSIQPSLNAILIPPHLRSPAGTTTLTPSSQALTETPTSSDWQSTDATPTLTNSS
Catalogue of IC50 readings, one per entry.
Measure: IC50

Molecule: CC(C)N1CC2(C1)C1=C(N=NC1)NC1=C2C(=O)CC(C)(C)C1
Value Observed: > 5000 nM
--
Molecule: CC[C@]1(c2cccc(-c3ccnn3C)c2)C2=CN=NC2NC2=C1C(=O)NC1(CCCC1)C2 (stereo partly drawn)
Value Observed: 1000 to 5000 nM
--
Molecule: CC[C@]1(c2cccc(-c3cnn(-c4ccccc4)c3F)c2)C2=CN=NC2NC2=C1C(=O)NC(C)(C)C2 (stereo partly drawn)
Value Observed: > 5000 nM
--
Molecule: CC1(C)CC(=O)C2=C(C1)NC1=C(CN=N1)C21CCN(S(=O)(=O)c2cn3c(n2)CCCC3)CC1
Value Observed: < 100 nM
--
Molecule: CC1(C)CC(=O)C2=C(C1)NC1=C(CN=N1)C21CCOCC1
Value Observed: 100 to 1000 nM
--
Molecule: CC1(C)CC(=O)C2=C(C1)NC1=C(CN=N1)C21CN(CCc2ccccc2)C1
Value Observed: > 5000 nM
--
Molecule: CCC1(c2cccc(-c3ccnc(C)c3C)c2)C2=CN=NC2NC2=C1C(=O)NC(C)(C)C2 (stereo not drawn)
Value Observed: < 100 nM
--
Molecule: CC[C@@]1(c2cccc(N(C)c3cccc(C(F)(F)F)n3)c2)C2=CN=NC2NC2=C1C(=O)CC(C)(C)C2 (stereo partly drawn)
Value Observed: < 100 nM
--
Molecule: CC[C@]1(c2cccc(C(F)(F)F)c2)C2=C(NC3=NN=CC31)c1ccccc1C2=O (stereo partly drawn)
Value Observed: < 100 nM
--
Molecule: CC[C@@]1(c2cccc(C(F)(F)F)c2)C2=CN=NC2NC2=C1C(=O)N(C)C(C)(C)C2 (stereo partly drawn)
Value Observed: 100 to 1000 nM
--
Molecule: Cc1ccccc1CC(=O)N1CC2(C1)CC1(CO2)C2=C(N=NC2)NC2=C1C(=O)CC(C)(C)C2 (stereo not drawn)
Value Observed: < 100 nM
--
Molecule: CO[C@H]1C[C@]2(C1)C1=C(N=NC1)NC1=C2C(=O)CC(C)(C)C1
Value Observed: > 5000 nM
--
Molecule: CC1N=NC2=C1C1(CN(S(=O)(=O)CC3CC3)C1)C1=C(CC(C)(C)CC1=O)N2 (stereo not drawn)
Value Observed: < 100 nM
